Experiment: folding stability dG unfold (combined trypsin and chymotrypsin); higher = more stable
Record form. Attribute: folding stability dG unfold. Fill in for each entry.
Write the value in kcal/mol as a bare number.

Query block: // lookup folding stability dG unfold for SAMTPETERKLLEAPKTGDVEAVREAAEEIEKEYPGKGLVVTVTVSPLSDGTWEVEVTVELPPNLPELASAG [r14_690_JUSTAS]
Result block: 0.437

Query block: Likewise for SAGGMVTITLPEVNVEDPEVAEARMEEIAARLRAAGVTVTSASYDPEKGLATITVSAGGLSAAEVLASAGGS [r8_344_JUSTAS] ?
Result block: 2.47

Query block: Now the sequence SAKTIKIEIEVKPEKLEEVLEEIAKALAEKLGLPEDVKEIKIEVTKIEVEKVKVDGKEYVKVKIEIKVESAG [r14_736_TrROS_Hall]
Result block: 3.59

====

Experiment: folding stability dG unfold from chymotrypsin proteolysis; higher = more stable
Respond with rule met for folding stability dG unfold values of 2 kcal/mol and above, rule not met for values below.

Query block: Kindly determine if folding stability dG unfold recorded for SAGPPEQKIKIKWYPPDDGQPQEIPGPVDDIKDILDKLGWPVTNIETDPDDNEVEIWVPFPNWWLHIKISAG [r5_521_TrROS] is above or exactly 2 kcal/mol.
Result block: rule not met

Query block: Same for SAGGSAGGSKSKKYIEIDFSNLTEIKFNPNTNYATAIFKDKGKIYIAKIHFLPNGKAIAEVFDSAGGSAGGS [r12_839_TrMRF]
Result block: rule met

Query block: Now the sequence SAGGSGDSMLVPVSESTSSYPPSGIVRSTKTILDPKKGGIITETTTTTLTPDGNPLSTTPSTTVKESAGGSA [r2_253_JUSTAS]
Result block: rule not met

Query block: And then SAPDWVKIKFPFRFYNPDPDGKPMAKMKLEIEVYPSPGAYMAKIEDPNFGMKITFPFDSPEEVKDFLQNSAG [r14_508_TrROS] , what is it?
Result block: rule not met

Query block: And the next one, SAGGLEELAKEIADDLQKRNPDMNIEVQVEVHEYKIPPGQKMRHPDGEEKEVPPGQKVYMFTIRVTPSAGGS [r16_357_TrROS] ?
Result block: rule not met

Query block: Then this sequence: SAGGITINEDGTITIEVNGKTYTIKLPPGAEITKIEVLEDGTIKITLRINGKTVTLELKVYKEGEEPSAGGS [r16_635_TrROS_Hall]
Result block: rule met

Query block: Proceed to SAGGAFIKDFDVEEDPNGHRKFKFELPNGWKYDITIHPDFPQIEIKPIKPIEPPPIPADDPEQAEEQSAGGS [r16_482_TrROS]
Result block: rule not met

Query block: Field entry: SAKIEIIKKDGEYYLRITLENGKKKTIKLKGIKKIEIKNGKIYIYNKKTGKKIILKNAKIKKIEIEKVPSAG [r14_83_TrROS_Hall]
Result block: rule met

Query block: Next entry: SAGGDPNGKWVTINIPIWIPGPPEQAEMIAESIMEELGFEITDVKVEPHPDDPNWVRIDITLTFRKKSAGGS [r8_479_TrROS]
Result block: rule met

Query block: Same question for SAGGSAGGSPNPKNVKIYLVALDPDKPEVVAEASFNITVDTEEELEAILKELVPLFPGAKVFASAGGSAGGS [r12_1043_TrMRF] please.
Result block: rule not met

Query block: What do we get for SAGGSAGGSAGGGMTITTTSSVSESDGGLTLSTTTTAFDPVTGTWTPLTTTTTTLPPTTSAGGSAGGSAGGS [r10_51_JUSTAS] ?
Result block: rule not met

Query block: Same question, SAGGSAGGSAGSTVTLELEIDGVRITVKAELTPDGELRLTITEVEVLPPPPVVHPDDPEALKSAGGSAGGSA [r18_176_TrROS_Hall] this time
Result block: rule not met

Query block: Query SAGGSAGGSAGKEYYVVAKVEDPSTGKVTVYVGPFSDFVKTFDPKNSKVEFFLVEKDALKSAGGSAGGSAGG [r11_334_TrMRF] next
Result block: rule met

Query block: Entry SASITIPVDELKDFAEHFPGFNVGVNPETGMFQIFFPENGWMINIDIEVDPDDPDTIEIDIEIYPMPPNSAG [r14_604_TrROS] please
Result block: rule met
